Measured protein stability index values are reported for all entries that follow.
B1: STK38L (parent)
chain: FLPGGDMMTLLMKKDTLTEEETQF

- Variants of: B1
- Assay comment: protein stability index of a GFP-peptide fusion (GPS, HEK-293T) (PSI 1-6); higher = more stable;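 further: lentivirally expressed fusions sorted by FACS into six bins by GFP to DsRed ratio, PSI derived from sequencing read proportions per bin multiplied by bin number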
- Condition info: c terminus: a fixed tail appended
Lab note: record just the number, no unit beside it.

Guide cases for protein stability index, answers given:
FLPGGDMMNLLMKKDTLTEEETQF [T9N] ... 3.01
FLPGGDMMTLLMKKDTLTMEETQF [E19M] ... 1.66
FLQGGDMMTLLMKKDTLTEEETQF [P3Q] ... 2.31
FLPGGDMMTTLMKKDTLTEEETQF [L10T] ... 3.78
NLPGGDMMTLLMKKDTLTEEETQF [F1N] ... 4.66

Continue with the next variant.
Enquiry: Give the value of protein stability index reported for the following: FLEGGDMMTLLMKKDTLTEEETQF [P3E]
Return: 2.32
